Give BMPRII binding (relative to wild type = 1.0) for every item shown.
Molecular target: T1, BMPRII receptor-Fc fusion (UniProt Q13873 27-151, limits assumed)
T1 construct: BMP receptor-Fc fusion used at 5 ug/mL
T1 sequence (looked up): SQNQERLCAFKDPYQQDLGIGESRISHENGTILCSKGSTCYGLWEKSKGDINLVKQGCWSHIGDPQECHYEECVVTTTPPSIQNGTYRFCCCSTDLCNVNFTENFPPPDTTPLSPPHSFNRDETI
Assay: ELISA-like plate assay, captured BMP-7 from conditioned media, receptor-Fc detection

What does the data say about its BMPRII binding (relative to wild type = 1.0)? Entry: BMP-7 variant R48N (ligand, In conditioned media; numbering on mature BMP-7) STGGKQRSQNRSKTPKNQEALRMASVAENSSSDQRQACKKHELYVSFNDLGWQDWIIAPEGYAAYYCEGECAFPLNSYMNATNHAIVQTLVHFINPETVPKPCCAPTQLNAISVLYFDDSSNVILKKYRNMVVRACGCH
0.13 relative to wild type

Another: BMP-7 variant Q53K (ligand, In conditioned media; numbering on mature BMP-7) STGGKQRSQNRSKTPKNQEALRMASVAENSSSDQRQACKKHELYVSFRDLGWKDWIIAPEGYAAYYCEGECAFPLNSYMNATNHAIVQTLVHFINPETVPKPCCAPTQLNAISVLYFDDSSNVILKKYRNMVVRACGCH
0.14 relative to wild type
